Tested on: Lefty1
Experiment: Lefty1 binders on small-molecule microarrays, primary screen, biochemical, small-molecule microarray, 635/667 nm fluorescence (AID 1139)
Conditions: small-molecule microarray binding, fluorescence 635/667; higher = more signal
Mark Y for reported composite z-score of 0.5 or greater; mark N for anything smaller.

Past entries and their recorded results:
> print(dat)
                                   compound  category
1  CO[C@H]1COC(=O)[C@H](C)COC(=O)CC=C[C@@H](C)[C@H](OC)COC(=O)CC=C[C@@H]1C         Y
2  COCCCNC(=O)[C@@]1(Sc2ccc(C)cc2)CC(=O)N(Cc2ccccc2)[C@@H]1c1ccc(CO)cc1I         N
3  C#C[C@@H](CC)O[Si](C#Cc1ccc(Oc2ccccc2)cc1)(C(C)C)C(C)C         Y

Q: Check if composite z-score >= 0.5 (inclusive). Item: COC(=O)[C@H](C)NC(=O)CCC1CC(OC(=O)NCCc2ccc(F)cc2)CC2(CCCC(COC(=O)NCCc3ccc(Cl)cc3)O2)O1 (stereo partly specified)
A: Y

Q: Check if composite z-score >= 0.5 (inclusive). Item: "COC(=O)C1=C(C)[C@@H](O)[C@@H](C)[C@H](c2c(OC)c(OC)c(C)c(OC)c2OC)O1"
A: N

All values here come from PubChem BioAssay.
